The origin of these recorded values is patent US20230277698A1.

Tested on: LNCaP tumor-bearing CB17-SCID mice
test description: Biodistribution studies 24 h p.i.
Assay type: in vivo
test conditions: 177Lu-labelled, mean±SD, n=4-5
# biodistribution: kidneys per record follows
Provide the reading as a plain figure in % ID/g.

Worked examples, 6 molecules total:
{"molecule": "CC(C)(C)[Si](F)(c1ccc(C(=O)NC[C@@H](NC(=O)CC[C@@H](C(=O)O)N2CCN(CC(=O)O)CCN(CC(=O)O)CCN(CC(=O)O)CC2)C(=O)N[C@H](CCCCNC(=O)CCC(=O)NCCC[C@@H](NC(=O)CC[C@H](NC(=O)N[C@@H](CCC(=O)O)C(=O)O)C(=O)O)C(=O)O)C(=O)O)cc1)C(C)(C)C [rhPSMA-7.3, reference compound]", "recorded number": 13.2}
{"molecule": "CC(C)(C)[Si](F)(c1ccc(C(=O)NC[C@@H](NC(=O)CN2CCN(CC(=O)O)CCN(CC(=O)O)CCN(CC(=O)O)CC2)C(=O)N[C@H](CCCCNC(=O)CCC(=O)NCCC[C@@H](NC(=O)CC[C@H](NC(=O)N[C@@H](CCC(=O)O)C(=O)O)C(=O)O)C(=O)O)C(=O)O)cc1)C(C)(C)C [rhPSMA-10, reference compound]", "recorded number": 4.1}
{"molecule": "CC(C)(C)[Si](O)(c1ccc(C(=O)NC[C@@H](NC(=O)CC[C@@H](C(=O)O)N2CCN(CC(=O)O)CCN(CC(=O)O)CCN(CC(=O)O)CC2)C(=O)NCC(=O)N[C@@H](CCCCNC(=O)CCC(=O)NCCC[C@@H](NC(=O)CC[C@H](NC(=O)N[C@@H](CCC(=O)O)C(=O)O)C(=O)O)C(=O)O)C(=O)O)cc1)C(C)(C)C", "recorded number": 3.3}
{"molecule": "CC(C)(C)[Si](O)(c1ccc(C(=O)N[C@H](CCC(=O)NC[C@@H](NC(=O)CC[C@@H](C(=O)O)N2CCN(CC(=O)O)CCN(CC(=O)O)CCN(CC(=O)O)CC2)C(=O)NCCCCCC(=O)NCCC[C@@H](NC(=O)CC[C@H](NC(=O)N[C@@H](CCC(=O)O)C(=O)O)C(=O)O)C(=O)O)C(=O)O)cc1)C(C)(C)C", "recorded number": 4.2}
{"molecule": "O=C(O)CC[C@H](NC(=O)N[C@@H](CCCCNC(=O)CCCCCCC(=O)NCCCC[C@@H](NC(=O)[C@@H](Cc1ccccc1)NC(=O)[C@@H](Cc1ccc(O)c(I)c1)NC(=O)CCC(C(=O)O)N1CCN(CC(=O)O)CCN(CC(=O)O)CCN(CC(=O)O)CC1)C(=O)O)C(=O)O)C(=O)O (some centres unmarked) [PSMA I&T, reference compound]", "recorded number": 34.7}
{"molecule": "O=C(O)CC[C@H](NC(=O)N[C@@H](CCCCNC(=O)[C@H](Cc1ccc2ccccc2c1)NC(=O)[C@H]1CC[C@H](CNC(=O)CN2CCN(CC(=O)O)CCN(CC(=O)O)CCN(CC(=O)O)CC2)CC1)C(=O)O)C(=O)O [PSMA-617, reference compound]", "recorded number": 1.4}

Asked: For CC(C)(C)[Si](O)(c1ccc(C(=O)NC[C@@H](NC(=O)CC[C@@H](C(=O)O)N2CCN(CC(=O)O)CCN(CC(=O)O)CCN(CC(=O)O)CC2)C(=O)N[C@H](CCCCNC(=O)CCC(=O)NCCC[C@@H](NC(=O)CC[C@H](NC(=O)N[C@@H](CCC(=O)O)C(=O)O)C(=O)O)C(=O)O)C(=O)O)cc1)C(C)(C)C , what is its reported biodistribution: kidneys?
Given back: 3.7

Asked: For CC(C)(C)[Si](O)(c1ccc(C(=O)NC[C@@H](NC(=O)CC[C@@H](C(=O)O)N2CCN(CC(=O)O)CCN(CC(=O)O)CCN(CC(=O)O)CC2)C(=O)N[C@H](CO)C(=O)NCCC(=O)NCCC(=O)NCCC[C@@H](NC(=O)CC[C@H](NC(=O)N[C@@H](CCC(=O)O)C(=O)O)C(=O)O)C(=O)O)cc1)C(C)(C)C , what is its reported biodistribution: kidneys?
Given back: 3.5
